System: Aedes aegypti mosquitoes
assay-comment: in vitro Gupta box landing assay (insect repellency)
run-conditions: 20 min; 1% (w/v) in isopropyl alcohol, 25 μL on Baudruche membrane; female Aedes aegypti; landings over 20 min vs IPA control
Description: The products of Examples 1-15 were evaluated for insect repellency against Aedes aegypti mosqutioes in the in vitro Gupta box landing assay. In this method a chamber contained 5 wells, each covered by a Baudruche (animal intestine) membrane. […] The number of mosquitoes probing the membranes for each treatment was recorded at 2 min intervals over 20 min. […]
The label Y is reserved for pest or weed control at 10000 µg/mL strictly under 70%; N covers values equal to or above it.

> print(dat)
                            molecule.smiles  classification
1  C#CCN1C[C@@H](C)[C@H]2CC[C@H](C)[C@H]2C1=O               N
2  CCCCCN1C[C@@H](C)[C@H]2CC[C@H](C)[C@H]2C1=O               N
3  C[C@@H]1CN(c2ccccc2)C(=O)[C@H]2[C@@H]1CC[C@@H]2C               Y
4  C=CCN1C[C@@H](C)[C@H]2CC[C@H](C)[C@H]2C1=O               N
5  C[C@@H]1CN(C)C(=O)[C@H]2[C@@H]1CC[C@@H]2C               Y
6  CCCN1C[C@@H](C)[C@H]2CC[C@H](C)[C@H]2C1=O               N
